- TARGET_OR_SYSTEM: Ribonuclease A (Bos taurus, UniProt P61823)
- Sequence (P61823 27-150): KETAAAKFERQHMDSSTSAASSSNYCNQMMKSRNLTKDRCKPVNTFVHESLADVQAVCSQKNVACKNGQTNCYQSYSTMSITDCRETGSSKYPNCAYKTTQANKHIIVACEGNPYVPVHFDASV
- ASSAY_REMARKS: Visual detection ribonuclease assay, cleavage of Substrate ODN by RNase A
- Assay type: biochemical, mammalian
- Set-up: key: +++ = maximum intensity; ++ = moderate intensity; + = faint but above background; − = negative (identical to background)
- ASSAY_SETUP: RNase A 1 ng/ml; visual inspection, UV excitation; Substrate 500 nM; 37° C. 60 minutes
MEASURED_PARAMETER: Sensitivity of Substrate ODN to Ribonuclease A, relative signal intensity

SUBSTANCE	EXPERIMENTAL_VALUE
5′ Fluorescein-AagucA-QSY-7 3′ (NAAGUCAN; 5' fluorescein and 3' QSY-7 labels, nucleotide chemistry not given here) [SEQ ID NO:27]	+++
5′ Fluorescein-AcgaA-Dabcyl 3′ (NACGAAN; 5' fluorescein and 3' Dabcyl labels, nucleotide chemistry not given here) [SEQ ID NO:12]	++
5′ Fluorescein-AgcuaA-Dabcyl 3′ (NAGCUAAN; 5' fluorescein and 3' Dabcyl labels, nucleotide chemistry not given here) [SEQ ID NO:22]	+++
5′ Fluorescein-AgucaA-Dabcyl 3′ (NAGUCAAN; 5' fluorescein and 3' Dabcyl labels, nucleotide chemistry not given here) [SEQ ID NO:23]	+++

----------
- TARGET_OR_SYSTEM: Ribonuclease A (Bos taurus)
- ASSAY_REMARKS: Visual detection ribonuclease assay, cleavage of Substrate ODN by RNase A
- Format: biochemical, mammalian
- Parameters: key: +++ = maximum intensity; ++ = moderate intensity; + = faint but above background; − = negative (identical to background)
- ASSAY_SETUP: RNase A 1 ng/ml; visual inspection, UV excitation; Substrate 500 nM; 37° C. 60 minutes
- Method: Nuclease assays were conducted using the methods of the invention. […] Assay Mixes were incubated at room temperature for 10 minutes. Assays were visually examined for fluorescence emission directly in the assay tubes without further manipulation. […] Table 6: Sensitivity of different Substrate ODNs to Ribonuclease A. A series of Substrate ODNs were synthesized and tested for sensitivity to RNase A degradation. […] Results were scored as +++, ++, +, or − based on relative signal intensity. […]
MEASURED_PARAMETER: Sensitivity of Substrate ODN to Ribonuclease A, relative signal intensity

SUBSTANCE	EXPERIMENTAL_VALUE
5′ Fluorescein-AcgcA-Dabcyl 3′ (NACGCAN; 5' fluorescein and 3' Dabcyl labels, nucleotide chemistry not given here) [SEQ ID NO:13]	++
5′ Fluorescein-AAuAA-Dabcyl 3′ (NAAUAAN; 5' fluorescein and 3' Dabcyl labels, nucleotide chemistry not given here) [SEQ ID NO:3]	++
5′ Fluorescein-AgcuAA-Dabcyl 3′ (NAGCUAAN; 5' fluorescein and 3' Dabcyl labels, nucleotide chemistry not given here) [SEQ ID NO:11]	++

----------
- TARGET_OR_SYSTEM: Ribonuclease T1 (Aspergillus oryzae, UniProt P00651)
- Sequence (P00651 27-130): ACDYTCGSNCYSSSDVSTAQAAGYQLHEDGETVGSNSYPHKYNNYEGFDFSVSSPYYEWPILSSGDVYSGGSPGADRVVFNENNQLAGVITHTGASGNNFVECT
- ASSAY_REMARKS: Visual detection ribonuclease assay, cleavage of Substrate ODN by RNase T1
- Format: biochemical
- Parameters: key: +++ = maximum intensity; ++ = moderate intensity; + = faint but above background; − = negative (identical to background)
- ASSAY_SETUP: RNase T1 10^−5 units/ml; visual inspection, UV excitation; Substrate 500 nM; 37° C. 60 minutes
MEASURED_PARAMETER: Sensitivity of Substrate ODN to Ribonuclease T1, relative signal intensity

Recorded results for 4 substances are shown here.
SUBSTANCE	EXPERIMENTAL_VALUE
5′ Fluorescein-AagucA-QSY-7 3′ (NAAGUCAN; 5' fluorescein and 3' QSY-7 labels, nucleotide chemistry not given here) [SEQ ID NO:27]	+
5′ Fluorescein-AgucAA-Dabcyl 3′ (NAGUCAAN; 5' fluorescein and 3' Dabcyl labels, nucleotide chemistry not given here) [SEQ ID NO:10]	−
5′ Fluorescein-AgaAA-Dabcyl 3′ (NAGAAAN; 5' fluorescein and 3' Dabcyl labels, nucleotide chemistry not given here) [SEQ ID NO:9]	−
5′ Fluorescein-AgucaA-Dabcyl 3′ (NAGUCAAN; 5' fluorescein and 3' Dabcyl labels, nucleotide chemistry not given here) [SEQ ID NO:23]	−

Now for a further substance.
Recorded Sensitivity of Substrate ODN to Ribonuclease T1, relative signal intensity for 5′ Fluorescein-AAcAA-Dabcyl 3′ (NAACAAN; 5' fluorescein and 3' Dabcyl labels, nucleotide chemistry not given here) [SEQ ID NO:5] , please?
−
